# Assay method text: Inhibition of Mycobacterium tuberculosis DNA gyrase GyrB/GyrA M74I mutant
Measurement name: pIC50
Reminder that pIC50 means the negative base-10 logarithm of the concentration expressed in mol/L.

Compound | Observed value
CC1COc2c(N3CCN(C)CC3)c(F)cc3c(=O)c(C(=O)O)cn1c23 (stereo not drawn) | 4.60

Consider the additional compound presented here.
Notebook: CCn1cc(C(=O)O)c(=O)c2ccc(C)nc21 , pIC50 read as 2.46

====

# Assay method text: Inhibition of Mycobacterium tuberculosis DNA gyrase GyrA/GyrB R447K mutant gene
Overview of reported pIC50 across a group of molecules:
# reply with the number alone; pIC50 is -log10 of concentration in mol/L

Would you please look over these solved cases?
Molecule | Observed value
COc1c(N2C[C@@H]3CCCN[C@@H]3C2)c(F)cc2c(=O)c(C(=O)O)cn(C3CC3)c12 | 6.00
CC1COc2c(N3CCN(C)CC3)c(F)cc3c(=O)c(C(=O)O)cn1c23 (centres undefined) | 5.15
CCn1cc(C(=O)O)c(=O)c2ccc(C)nc21 | 2.97

API: the following record is the query input.
Value of pIC50 reported for the molecule CCn1cc(C(=O)O)c(=O)c2cc(F)c(N3CCNCC3)nc21 is 4.64
